meta.source: PubChem BioAssay (NCI)

- Tested on: ACHN renal
- assay_procedure: NCI-60 one-dose screen, 48 h (100 = growth as untreated, 0 = no growth, -100 = all killed)
- measurement_context: 10 µM
The panel holds about 83,000 compounds, 20% with a hit somewhere; the sample as a whole holds those more often.
Each entry below carries its reported growth.
Give a bare numeral; the unit % is implied.

compound: Nc1nc(Nc2ccccc2)n[nH]1
measured_value: 89.7
//
compound: Nc1nc(N)c(NC(=O)CNc2ccc(C(=O)O)cc2)c(N)n1
measured_value: 115
//
compound: CCCCCCCCCCCCCCCCCCOCC(COCCOCC[N+]1(CCCCCC(=O)[O-])CCCC1)Oc1ncccn1 (stereo unspecified)
measured_value: 69.2

Qu. I'd like to know its growth. The compound in question is c1ccc2c(c1)oc1c3cccnc3ccc21
Ans. 87.9

Qu. Next compound up: COc1ccc2c(c1)N(CCO)C1=C(C(=O)OC1)C2c1ccccc1 (stereo unspecified)
Ans. 48.6

Qu. Next compound up: CCOC1(OCC)OC(c2ccccc2)=C(C#N)C(/C=C\c2ccccc2)C1(OCC)OCC (stereo unspecified)
Ans. 83.5

Qu. Next compound up: O=C(Nc1cccc(-n2cc(-c3ccncc3)c(-c3ccc(O)c(Cl)c3)n2)c1)c1ccc(N2CCOCC2)c(C(F)(F)F)c1
Ans. 29.3

Qu. Next compound up: COc1ccc(NC(=O)Cc2nc3nc4sc(C)c(C)c4c(=O)n3[nH]2)cc1
Ans. 107

Qu. Next compound up: COc1ccc(N=C2C(=Nc3ccc(OC)cc3)N(c3ccc(N(C)C)cc3)C(=S)N2c2ccc(OC)cc2)cc1
Ans. 81.6

Qu. Next compound up: Oc1[nH]c2cc(Cl)ccc2c1/C=c1/ccc2c(c1)N=C(c1cc(F)cc(F)c1)N=2
Ans. 46.3

Qu. Next compound up: CN1CCC2(CC1)NC(=O)c1c(c3ccc(Cl)c(Cl)c3n1C)C2C#N (stereo unspecified)
Ans. 73.9
